experiment: Hepatocyte elimination of parent compound, spread across species; format: in vitro ADME; conditions: mouse, rat, dog, monkey, human, hepatocytes; lowest to highest species value; read-out: range of hepatocyte elimination half-life values across species
RECORDED_ENDPOINT: half-life

# query: half-life of entry COc1ccc2c3c1O[C@@H]1C(F)CCC4[C@H](C2)N(S(=O)(=O)c2ccccc2)CC[C@]341 (some centres unmarked) [XT-208]
8.7 to 19.7 min

Which half-life is reported for this compound? COc1ccc2c3c1O[C@@H]1C(F)CCC4[C@H](C2)N(S(C)(=O)=O)CC[C@]341 (some centres unmarked) [XT-209]
15.3 to 296 min

Could you tell me which half-life is on file for COc1ccc2c3c1O[C@@H]1C(F)CCC4[C@H](C2)N(CC2CC2)CC[C@]341 (some centres unmarked) [XT-203] ?
13.2 to 54.3 min

So what does the record say about half-life for COc1ccc2c3c1O[C@@H]1C(F)CCC4[C@H](C2)N(C(=O)C2CC2)CC[C@]341 (some centres unmarked) [XT-206] ?
14.4 to 120 min

// query half-life value for entry COc1ccc2c3c1O[C@@H]1C(F)CCC4[C@H](C2)N(S(=O)(=O)Cc2ccccc2)CC[C@]341 (some centres unmarked) [XT-217]
9.2 to 14.1 min

----------
assay: in vitro; conditions: dog, cultured hepatocytes
RECORDED_ENDPOINT: half-life (min)
Give a bare numeral; the unit min is implied.

Solved entries (count: 3):
INSERT INTO assay_data (molecule, measured_result) VALUES
  ('COc1ccc2c3c1O[C@@H]1C(F)CCC4[C@H](C2)N(C(=O)C2CC2)CC[C@]341 (stereo partly shown) [XT-206]', 80.8),
  ('COc1ccc2c3c1O[C@@H]1C(F)CCC4[C@H](C2)N(S(=O)(=O)c2ccccc2)CC[C@]341 (stereo partly shown) [XT-208]', 14.6),
  ('COc1ccc2c3c1O[C@@H]1C(F)CCC4[C@H](C2)N(C(C)Cc2ccccc2)CC[C@]341 (stereo partly shown) [XT-215]', 19.6);

For the next question, use this molecule.
What value of measured half-life is listed for COc1ccc2c3c1O[C@@H]1C(F)CCC4[C@H](C2)N(S(C)(=O)=O)CC[C@]341 (stereo partly shown) [XT-209] ?
89

----------
target: hERG (Homo sapiens, UniProt Q12809); experiment: hERG inhibition; conditions: human
Sequence (Q12809 whole entry): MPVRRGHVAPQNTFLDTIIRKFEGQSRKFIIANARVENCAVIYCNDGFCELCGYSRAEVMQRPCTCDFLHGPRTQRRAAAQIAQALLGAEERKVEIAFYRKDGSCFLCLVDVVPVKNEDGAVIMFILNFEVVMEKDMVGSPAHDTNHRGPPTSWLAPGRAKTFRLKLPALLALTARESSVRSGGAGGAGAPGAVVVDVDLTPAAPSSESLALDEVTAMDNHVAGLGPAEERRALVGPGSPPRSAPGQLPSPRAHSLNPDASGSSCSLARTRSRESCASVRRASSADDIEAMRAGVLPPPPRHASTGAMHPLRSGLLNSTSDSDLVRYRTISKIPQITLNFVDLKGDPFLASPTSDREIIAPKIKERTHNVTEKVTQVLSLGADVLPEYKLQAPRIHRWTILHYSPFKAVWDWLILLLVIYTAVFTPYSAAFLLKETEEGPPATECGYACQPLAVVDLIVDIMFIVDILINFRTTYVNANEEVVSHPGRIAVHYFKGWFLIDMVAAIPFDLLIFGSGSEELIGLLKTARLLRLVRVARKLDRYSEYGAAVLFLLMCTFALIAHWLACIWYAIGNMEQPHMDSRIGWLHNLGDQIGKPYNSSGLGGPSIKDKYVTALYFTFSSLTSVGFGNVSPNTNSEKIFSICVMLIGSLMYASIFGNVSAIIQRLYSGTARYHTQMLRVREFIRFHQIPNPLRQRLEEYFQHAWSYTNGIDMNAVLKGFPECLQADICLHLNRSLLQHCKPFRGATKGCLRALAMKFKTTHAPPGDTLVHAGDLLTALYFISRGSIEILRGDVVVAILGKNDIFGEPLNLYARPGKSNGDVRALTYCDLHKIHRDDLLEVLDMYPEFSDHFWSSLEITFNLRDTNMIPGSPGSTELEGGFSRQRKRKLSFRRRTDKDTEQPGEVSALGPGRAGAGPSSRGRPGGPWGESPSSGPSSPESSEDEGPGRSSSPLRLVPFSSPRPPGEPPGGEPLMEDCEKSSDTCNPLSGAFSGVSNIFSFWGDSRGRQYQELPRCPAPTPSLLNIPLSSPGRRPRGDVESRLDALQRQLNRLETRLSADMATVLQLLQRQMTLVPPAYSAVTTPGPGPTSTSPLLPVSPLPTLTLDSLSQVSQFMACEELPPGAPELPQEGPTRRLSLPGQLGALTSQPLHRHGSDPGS
RECORDED_ENDPOINT: IC50 (µM)
// units = µM; emit number, no label

Entry COc1ccc2c3c1O[C@@H]1C(F)CCC4[C@H](C2)N(C(C)Cc2ccccc2)CC[C@]341 (stereo partly shown) [XT-215] has what IC50?
10

----------
assay: in vitro; conditions: human, cultured hepatocytes
Please respond with MET when measured half-life is strictly beneath 30 min, and with NOT MET in all other cases.

See these solved cases before continuing.
INSERT INTO assay_data (compound, group) VALUES
  ('COc1ccc2c3c1O[C@@H]1C(F)CCC4[C@H](C2)N(C2CC2)CC[C@]341 (some centres unmarked) [XT-214]', 'NOT MET'),
  ('COc1ccc2c3c1O[C@@H]1C(F)CCC4[C@H](C2)N(C(=O)c2ccccc2)CC[C@]341 (some centres unmarked) [XT-207]', 'NOT MET'),
  ('COc1ccc2c3c1O[C@@H]1C(F)CCC4[C@H](C2)N(C(=O)C(C)(C)c2ccccc2)CC[C@]341 (some centres unmarked) [XT-216]', 'NOT MET'),
  ('COc1ccc2c3c1O[C@@H]1C(F)CCC4[C@H](C2)N(S(=O)(=O)C2CC2)CC[C@]341 (some centres unmarked) [XT-212]', 'NOT MET'),
  ('COc1ccc2c3c1O[C@@H]1C(F)CCC4[C@H](C2)N(C(C)Cc2ccccc2)CC[C@]341 (some centres unmarked) [XT-215]', 'NOT MET');

Is the reported half-life for COc1ccc2c3c1O[C@@H]1C(F)CCC4[C@H](C2)N(S(C)(=O)=O)CC[C@]341 (some centres unmarked) [XT-209] strictly below 30 min?
NOT MET

Is it true that half-life reported for COc1ccc2c3c1O[C@@H]1C(F)CCC4[C@H](C2)N(S(=O)(=O)c2ccccc2)CC[C@]341 (some centres unmarked) [XT-208] is less than 30 min?
MET

Strictly below 30 min: is that where half-life of COc1ccc2c3c1O[C@@H]1C(F)CCC4[C@H](C2)N(S(=O)(=O)Cc2ccccc2)CC[C@]341 (some centres unmarked) [XT-217] sits?
MET
